protocolDescription: HTB85 osteosarcoma cell growth inhibition, synergistic combos for chromothripsis tumors, BGB or cisplatin IC20 combos (AID 1671453);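 note: cells exposed for 96 hours before readout; 0% = vehicle DMSO and 100% = high DMSO killing control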
reportedConditions: HTB85 osteosarcoma cells, drug combinations, measured here: with cisplatin IC20, at 5 µM, stronger effect = higher value

compoundString	readingUnit	inhibition
CCc1c2c(nc3ccc(O)cc13)-c1cc3c(c(=O)n1C2)COC(=O)[C@]3(O)CC	%	99.5
CC(C)N=c1cc2n(-c3ccc(Cl)cc3)c3ccccc3nc-2cc1Nc1ccc(Cl)cc1	%	-38.1
Cc1c(-c2cnccn2)ssc1=S	%	6.84
O=C(Nc1ccncc1)c1cc([N+](=O)[O-])ccc1Cl	%	-16.5
O=c1[nH]c(-c2ccc(C(F)(F)F)cc2)nc2c1CSCC2	%	-19.6
O=c1cc(-c2cccc3c2Sc2ccccc2S3)oc(N2CCOCC2)c1	%	-19.5

====

targetOrTestSystem: Calcium-dependent protein kinase 1 (Plasmodium falciparum (isolate 3D7))
protocolDescription: PfCDPK1 kinase inhibitors, biochemical, TCAMS library (AID 1159585);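 note: inhibitors leave more ATP so luminescence rises with inhibition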
reportedConditions: recombinant PfCDPK1, Kinase-Glo ATP depletion luminescence
Entries with a potency or affinity are not part of this list. Activity calls are given as the source filed them. No cut-off is given here; in the data, nearly all actives have IC50 up to about 0.98 µM.

compound	outcome
Cc1nc(C)c(-c2ccc(Oc3ccc(OC(F)(F)F)cc3)cc2)c(OC(=O)c2ccc(CN(C)C)cc2)c1Cl	inactive
Nc1nc(N)c(-c2ccccc2)c(=O)[nH]1	inactive
Cc1cccc2[nH]c(-c3ccc(-c4ccc(C(=O)NCCN5CCCC5)cc4)cc3)nc12	inactive
CCC(CC)OC(=O)C(C)c1cccc(C(=O)c2ccccc2)c1 (stereo not given)	inactive
CS(=O)(=O)CCNC(=O)c1ccc(-c2cc3c(Nc4ccc5c(cnn5Cc5ccccc5)c4)ncnc3cn2)o1	inactive

====

Below, each entry is listed alongside its reported growth inhibition.
protocolDescription: antimalarial activity against Dd2 strain (AID 2302);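 note: 0% = DMSO untreated growth and 100% = chloroquine plus artemisinin killed control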
reportedConditions: P. falciparum Dd2 in RBCs, LDH growth readout, 72 h; at 2 µM; stronger effect = higher value

molecule	readingUnit	growth inhibition
CCCNC(=O)c1cncc(-c2ccc(CNC(CC)c3ccccc3)cc2)c1 (stereo not given)	%	1
CC(C)NCc1ccc(-c2ccc(NC(=O)c3ccc(C#N)cc3)cc2)cc1	%	0
COc1ccc(Nc2ncc3c(-c4cccc(NC(=O)Cc5ccc(O)cc5)c4)c[nH]c3n2)cc1OC	%	99
c1cc2nc(CCCc3nc4ccc(C5=N[C@H]6CCCC[C@H]6N5)cc4[nH]3)[nH]c2cc1C1=N[C@@H]2CCCC[C@@H]2N1	%	84
FC(F)(F)c1ccc(N2CCCN(Cc3cccc(-c4ccccc4CNCc4ccc5c(c4)OCO5)c3)CC2)nc1	%	11
Cc1ccc(Nc2ccnc(Nc3ccc4c(c3)CS(=O)(=O)C4)n2)cc1O	%	76
CC(CNC(=O)[C@H]1CNCCN1C(=O)CCCc1ccccc1)c1ccccc1 (stereo not given in full)	%	1
Cc1cc(NC(=O)c2ccsc2)ccc1OC1CCN(Cc2ccc(F)cc2)CC1	%	47
c1ccc(Oc2ccc(Nc3ccnc(Nc4ccc(OCCN5CCCCC5)cc4)n3)cc2)cc1	%	66
Cc1sc2nc(CN3CCCC3)nc(-n3c(NCCO)nc4ccccc43)c2c1C	%	11
CN(Cc1cc(C(F)(F)F)cc(C(F)(F)F)c1)C(=O)[C@H]1CNC[C@@H]1c1ccc(F)cc1	%	4
Fc1cccc(CNc2ncc(-c3ccsc3)c(-c3nccs3)n2)c1	%	85
CCCCCCCCOc1ccc(N2C(N)=NC(N)=NC2(C)C)cc1	%	-6
Nc1ncc(-c2ccc(S(=O)(=O)Nc3ccc(C(=O)N[C@@H](CCC(=O)O)C(=O)O)cc3)cc2)c(=O)[nH]1	%	0
CCNCCCC(C)Nc1ccnc2cc(Cl)ccc12 (stereo not given)	%	-3
NC(=NCC1CC1c1ccccc1)c1cccc(C(N)=NCC2CC2c2ccccc2)n1 (stereo not given)	%	-2
CN1CCCN(Cc2cccc(-c3cccc(NS(=O)(=O)c4cccc5cccnc45)c3)c2)CC1	%	74
O=C(/C=C/c1ccc(CNCCN2CCOCC2)cc1)NCCc1ccccc1	%	3
O=S1(=O)NCc2ccc(Nc3nccc(Nc4ccc5c(cnn5Cc5ccccc5)c4)n3)cc21	%	33
COc1ccc(Cc2cnc(N)nc2N)cc1OCCCOc1ccccc1	%	4
